# test_method_notes: folding stability dG unfold from chymotrypsin proteolysis; higher = more stable
Exercise: for every item that follows, state its recorded folding stability dG unfold.
// note: answer is a bare numeric in kcal/mol

Prompt line: Which folding stability dG unfold reading was recorded for the sequence SAGMLSSETVPFPDSEITIEYDPETGTVKITTTTTTSSPSLDYRTGKPGSVSSSTTTSFEVEAEPGAELSAG [r5_195_JUSTAS] ?
Response line: 0.323

Prompt line: Which folding stability dG unfold reading was recorded for the sequence SAGGSAGGSAGNISSLPPTPITGSSLKRFVVKRPDGTEEEVTLEITYYPETGKEIISTIKSAGGSAGGSAGG [r11_1024_JUSTAS] ?
Response line: 0.107

Prompt line: Which folding stability dG unfold reading was recorded for the sequence SAGGSAGGSAPTLELTVTLPDGLRVTVRYDLETDEVTIEVRPLPAPPPPELSEEERKKLAEESAGGSAGGSA [r18_236_TrROS_Hall] ?
Response line: 2.25

Prompt line: Which folding stability dG unfold reading was recorded for the sequence SMLEEVLERIEAMPPGSVVKVTLTFPDGTKRTETLKLSAEEVKEKLEKIKKENPDIKIEVKVEVYSTEEESA [r9_37_JUSTAS] ?
Response line: 4.05

Prompt line: Which folding stability dG unfold reading was recorded for the sequence SAGGSAGGSAGKAESGDNAITLTLPGGHKVTIPNLPPNEPVWVKLNNRWVKIGDLKVNPKSAGGSAGGSAGG [r11_16_TrMRF] ?
Response line: 0.227

Prompt line: Which folding stability dG unfold reading was recorded for the sequence SAGGSAMKKTTATFYVRPDSLTVEIELGEKTKKLTFDPSVSIEEVKASLPDYVDEVKVKPASPSLSSAGGSA [r15_1058_JUSTAS] ?
Response line: 0.529

Prompt line: Which folding stability dG unfold reading was recorded for the sequence SPIVKVRLRIELPDGKVLELELDVPLPLIKEALSKLIGEKYKVKIVKIDPIDPEKLKPGSTIEITLKAEPSA [r9_803_TrMRF] ?
Response line: 4.76

Prompt line: Which folding stability dG unfold reading was recorded for the sequence SAGGPWRFEIDDIQPPEDGKVQIRIKLYNDDGEPIQELSIPMKGVDDVKITIPIGNQPIKIPITVVPASAGG [r13_427_TrROS] ?
Response line: 0.614

Prompt line: Which folding stability dG unfold reading was recorded for the sequence SAGGSAGGSAGKVELIETEDKLYLVVEVDGKKEVIEVSKEELEELLAALPPDAKVTILKPSAGGSAGGSAGG [r11_374_TrROS_Hall] ?
Response line: 2.49

Prompt line: Which folding stability dG unfold reading was recorded for the sequence SAGGSAGGSAPNIRAKIEPKPDPGGPKLTIDVEDPDNPELPAEEVAKALEEEFPPDKIEPVSAGGSAGGSAG [r3_226_TrROS] ?
Response line: -0.7

Prompt line: Which folding stability dG unfold reading was recorded for the sequence SAGGSAMPIELDLVIEIPIDAHPDQTVEDLVEEIAERIRRLLPPDTVVELRVHLHPELGVALADVSSAGGSA [r15_739_TrMRF] ?
Response line: 0.117

Prompt line: Which folding stability dG unfold reading was recorded for the sequence SAGGSMPVPYESKNVSPSGVEVSSTTYPYDFQIEKFPGSNPVITRTDPKTGEVTPIGTEEELEKLLKSAGGS [r8_232_JUSTAS] ?
Response line: 0.182

Prompt line: Which folding stability dG unfold reading was recorded for the sequence SAGGSAMTAEELKGMKVKITLKNGKKIEAKIKKVEVINGEIYIEIDGKKIKLKKNEKYKIEIVEKKSAGGSA [r15_355_TrROS_Hall] ?
Response line: 2.22

Prompt line: Which folding stability dG unfold reading was recorded for the sequence SAGGSAGGSPGKPYVEVEFTFIAFFPDGWLWVMTMKIEIPPDNNEIKPDIEMERIPLPPGQFLSAGGSAGGS [r12_811_TrROS] ?
Response line: 2.73

* * *

# test_method_notes: folding stability dG unfold from trypsin proteolysis; higher = more stable
measured_metric: folding stability dG unfold
The reply should read as a number followed by its unit.

Prompt line: Which folding stability dG unfold reading was recorded for the sequence SAGGSAGGGKSFSIPVDDAVILDYDPVTKRLTILLPGPGVELVLPLDKVKRIEIDPETGTIHVESAGGSAGG [r6_313_TrMRF] ?
Response line: 1.54 kcal/mol

Prompt line: Which folding stability dG unfold reading was recorded for the sequence SKPPSDPGSIEFSFPDSSNVTVTIPVPLPPNTTVSISLSDGKSYTVPGGTTFTFTLPPGKPFTVTVNIRSSA [r9_79_JUSTAS] ?
Response line: 3.75 kcal/mol

Prompt line: Which folding stability dG unfold reading was recorded for the sequence SAGGSAGGSSPSSVSTYDIEFPDGTKIKITVTLGPGTPVVEITTLTESPPVKRVANTEEVKFESAGGSAGGS [r20_100_JUSTAS] ?
Response line: -0.0821 kcal/mol

Prompt line: Which folding stability dG unfold reading was recorded for the sequence SAGGSMEIPLGETIPIFFDDVIIEIEPETHEIHVIAEDSEKALELIKNLPFPIPAGEVKELSPEEFSAGGSA [r2_418_TrMRF] ?
Response line: 0.352 kcal/mol

Prompt line: Which folding stability dG unfold reading was recorded for the sequence SAGGSGSSMSVSVSVTTSPVSVDPNKPVPIEVATTTTPVSSYDPVTGTSSTTTTTTTVPLGNPEAASAGGSA [r2_489_JUSTAS] ?
Response line: 2.62 kcal/mol

Prompt line: Which folding stability dG unfold reading was recorded for the sequence SAGMETVKIKVRVKVTVRERLPDGTVKTREFELTLEIEVEVEPGQTAEELAKKLAEEFNIEEVEIEKVPSAG [r5_994_TrROS_Hall] ?
Response line: 2.57 kcal/mol

Prompt line: Which folding stability dG unfold reading was recorded for the sequence SAGGSAGGSPDLPELNIEPVSTLPDGSKIYRADVSPEAIARLKAANPAVTVEEHPDFLLLFLRESAGGSAGG [r6_395_JUSTAS] ?
Response line: 0.475 kcal/mol

* * *

# test_method_notes: folding stability dG unfold (combined trypsin and chymotrypsin); higher = more stable
Entry flag: yes if folding stability dG unfold reaches 3 kcal/mol; no if it does not.

Prompt line: Could you tell me if the measured folding stability dG unfold of SAGGSPPVPDDETVEIEVPDYKITFHPATQEVTVQTNDPAKAKAVIEALPYPIPYKNIKIVPPEKLSAGGSA [r2_418_JUSTAS] reaches 3 kcal/mol or more?
Response line: no

Prompt line: Could you tell me if the measured folding stability dG unfold of SAGGSAGGKTYIVKIVVKNKNGEELELTLEVETEEEAKEAAEELAKKLEEAGYEIVKVEIKKLPSAGGSAGG [r6_869_TrROS_Hall] reaches 3 kcal/mol or more?
Response line: yes

Prompt line: Could you tell me if the measured folding stability dG unfold of SSFMEQARNMAEELLQKKGLPPKPGEKVEIPIPYPNGMQIRITINPEEKKIDVEFYNDNQPVEHTFKIKKSA [r9_426_TrROS] reaches 3 kcal/mol or more?
Response line: no

Prompt line: Could you tell me if the measured folding stability dG unfold of SAGGKKVIIPFKSPEQVKDWLENAPPGHDKVEIFSPETGYMAEFEVDPKENKIKEIKWERFDPDDGMFSAGG [r13_945_TrROS] reaches 3 kcal/mol or more?
Response line: no

Prompt line: Could you tell me if the measured folding stability dG unfold of SSSSLLKSSTEEVEVSTTFTKTSPDGSLTPVGTTTEVVTKTVKTVPKEILEKLKKEKEKPLPPEGNLGYLSA [r9_1192_JUSTAS] reaches 3 kcal/mol or more?
Response line: no

Prompt line: Could you tell me if the measured folding stability dG unfold of SAGGSAGGSITVEVEVEIVDEVEDPNTQGYRPVRVSRIPITIPVPESWSEEDIEAAVKEAIEKASAGGSAGG [r6_494_JUSTAS] reaches 3 kcal/mol or more?
Response line: no

* * *

# test_method_notes: folding stability dG unfold from trypsin proteolysis; higher = more stable
Exercise: for every item that follows, state its recorded folding stability dG unfold.
// note: answer is a bare numeric in kcal/mol

Prompt line: Which folding stability dG unfold reading was recorded for the sequence SAGGSAGGSVEDVVKKENVEKAEVKPEPNPPVTLTKITSKNPNSNTTLTGTLVVVDPKNGLLLSAGGSAGGS [r12_133_JUSTAS] ?
Response line: -0.344

Prompt line: Which folding stability dG unfold reading was recorded for the sequence SGPTSITFPDGSSASISLSPDSFTITITLPGSSATSTYDPATGTTTITLTFSSSTVTLTLDPATGTLTVGSA [r9_207_JUSTAS] ?
Response line: 3.86

Prompt line: Which folding stability dG unfold reading was recorded for the sequence SAGGSAGGSMVYKVTVYIPESGETREFVDPGSEEEIKARVKELFPDPNVKVEITPIEASPELLSAGGSAGGS [r12_92_JUSTAS] ?
Response line: 2.11

Prompt line: Which folding stability dG unfold reading was recorded for the sequence SAGGSAGGSAGGPLKEAVEAAVASGAPEAEYLLVTPEGELRVTVKVYPEEGKVEVEVSPLSAGGSAGGSAGG [r17_475_TrMRF] ?
Response line: 0.903

Prompt line: Which folding stability dG unfold reading was recorded for the sequence SAGGSAGGSAGGDVEVKEFTTTDPETGEEIIRVTETIPGNEKIVTTYTKDGKPISTKKILSAGGSAGGSAGG [r7_454_JUSTAS] ?
Response line: -0.0907

Prompt line: Which folding stability dG unfold reading was recorded for the sequence SAGGSPEVKIEIEVTERVTVFDENGKPVEEVLVVKAKITFPDGTTATITAFFYEGKWFITSIELEPSAGGSA [r2_158_TrROS_Hall] ?
Response line: 3.84

Prompt line: Which folding stability dG unfold reading was recorded for the sequence SAGGSAGGSAGGMILVQDKKTKKWYEIKPGESLENLEFPEGVKEVRIYVFNEDGELVELDSAGGSAGGSAGG [r7_763_TrROS_Hall] ?
Response line: 1.39

Prompt line: Which folding stability dG unfold reading was recorded for the sequence SAGGSAGGSAGGSPLLDFPEPVTTLEETTVTVYFDTNDFTVTLNVTTEVTGDVKRPTVVGSAGGSAGGSAGG [r7_735_JUSTAS] ?
Response line: 1.1

Prompt line: Which folding stability dG unfold reading was recorded for the sequence SAGKETIKIKLFDKNGKLIAEIEIEKLPDGTYKIKIKNKKTGKELEIEVKIEDGKIYIKLPNGAILEIESAG [r5_809_TrROS_Hall] ?
Response line: 3.51

Prompt line: Which folding stability dG unfold reading was recorded for the sequence SAMKVTVKPTTLPDGTTVVVTTEPDKIVAYGTYNGDSFTSESLPDGTVVTTAKKPGGVLVTSPTDPNLESAG [r14_213_JUSTAS] ?
Response line: 0.26

Prompt line: Which folding stability dG unfold reading was recorded for the sequence SAGGSAGGSEKPVLIVKVKVKNPKTKKWEEKTIEVPEGVKTPEEVAKALEKEFGDVVKVEILPSAGGSAGGS [r12_942_TrROS_Hall] ?
Response line: 1.25

Prompt line: Which folding stability dG unfold reading was recorded for the sequence SAGGSAGGSTIREILDALPPGREIDVERHPNNGHYEISIQNPNGPNPTFQIDDPVTKEIAEWISAGGSAGGS [r12_174_TrROS] ?
Response line: 0.65

Prompt line: Which folding stability dG unfold reading was recorded for the sequence SAGGSAGGSAGGPVRLLVLEVPVENVEEVVRRLEALGSVRPVRVERLPGDRYRVLVVSPLSAGGSAGGSAGG [r7_589_TrMRF] ?
Response line: 1.3

Prompt line: Which folding stability dG unfold reading was recorded for the sequence SAGGSAGGSAGGERVVRFPYTGTLEDVLEAARRLRRLGGVEVGYDPENGVLLARFKGGGLSAGGSAGGSAGG [r7_219_TrMRF] ?
Response line: 0.54
